test-system: T1, full length human DLL4 (human, UniProt Q9NR61 27-685)
T1 construct: whole, on cells; also called native DLL4 expressed in HEK293 cells
T1 sequence (Q9NR61 27-685): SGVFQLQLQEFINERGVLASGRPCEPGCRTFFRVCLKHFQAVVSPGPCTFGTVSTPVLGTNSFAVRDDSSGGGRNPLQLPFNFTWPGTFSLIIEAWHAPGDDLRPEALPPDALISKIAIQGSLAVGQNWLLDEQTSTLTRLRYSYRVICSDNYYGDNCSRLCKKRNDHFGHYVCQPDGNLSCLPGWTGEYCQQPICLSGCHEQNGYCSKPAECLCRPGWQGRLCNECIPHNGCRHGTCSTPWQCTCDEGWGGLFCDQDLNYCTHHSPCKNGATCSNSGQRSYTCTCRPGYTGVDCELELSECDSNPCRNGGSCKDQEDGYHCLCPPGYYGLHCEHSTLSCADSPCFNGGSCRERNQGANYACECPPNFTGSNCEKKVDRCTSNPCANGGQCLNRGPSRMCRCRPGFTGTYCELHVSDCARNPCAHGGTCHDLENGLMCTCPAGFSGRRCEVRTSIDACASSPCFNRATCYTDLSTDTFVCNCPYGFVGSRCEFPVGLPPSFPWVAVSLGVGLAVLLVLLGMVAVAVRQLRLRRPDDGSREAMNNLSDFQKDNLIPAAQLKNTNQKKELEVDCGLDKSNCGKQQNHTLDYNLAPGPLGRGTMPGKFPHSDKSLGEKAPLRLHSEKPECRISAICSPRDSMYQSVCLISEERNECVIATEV
procedure-details: FMAT competition, supernatant vs Alexa-647 human Notch1/Fc, 293T cells with human DLL4
measurement-label: Mean % inhibition (%)
Give bare numbers, in %.

Examples with their reported Mean % inhibition follow.
binder: 12A1 (antibody, IgG4, V domains shown, Fully human; also used where no isotype is printed) VH: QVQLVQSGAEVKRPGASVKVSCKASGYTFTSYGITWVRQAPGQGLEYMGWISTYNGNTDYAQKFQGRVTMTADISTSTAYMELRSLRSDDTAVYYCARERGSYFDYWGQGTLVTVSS VL: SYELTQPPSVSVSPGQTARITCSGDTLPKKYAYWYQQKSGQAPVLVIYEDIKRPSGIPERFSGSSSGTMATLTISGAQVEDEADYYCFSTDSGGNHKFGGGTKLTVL
Mean % inhibition (%): 131
//
binder: 1E4 (antibody, IgG2, V domains shown, Fully human; also used where no isotype is printed) VH: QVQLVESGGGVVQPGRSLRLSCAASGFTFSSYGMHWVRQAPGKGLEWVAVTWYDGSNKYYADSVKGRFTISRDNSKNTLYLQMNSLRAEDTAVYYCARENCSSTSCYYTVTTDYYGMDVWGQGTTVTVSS VL: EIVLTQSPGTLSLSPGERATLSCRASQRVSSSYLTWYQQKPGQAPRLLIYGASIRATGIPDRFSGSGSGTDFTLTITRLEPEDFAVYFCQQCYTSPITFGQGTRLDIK
Mean % inhibition (%): 110

Would you kindly share the measured Mean % inhibition for 17F3 (antibody, IgG2, V domains shown, Fully human; also used where no isotype is printed) VH: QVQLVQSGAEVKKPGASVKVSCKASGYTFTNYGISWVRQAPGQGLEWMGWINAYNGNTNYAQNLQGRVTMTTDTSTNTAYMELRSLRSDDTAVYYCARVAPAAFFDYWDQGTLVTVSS VL: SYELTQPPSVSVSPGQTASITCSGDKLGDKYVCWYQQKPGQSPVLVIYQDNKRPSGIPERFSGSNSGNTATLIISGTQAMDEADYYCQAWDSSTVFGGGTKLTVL ?
120
